target: Hepatocyte Growth Factor (HGF), human (human, UniProt P14210 32-728); assay: ELISA
Sequence (P14210 32-728): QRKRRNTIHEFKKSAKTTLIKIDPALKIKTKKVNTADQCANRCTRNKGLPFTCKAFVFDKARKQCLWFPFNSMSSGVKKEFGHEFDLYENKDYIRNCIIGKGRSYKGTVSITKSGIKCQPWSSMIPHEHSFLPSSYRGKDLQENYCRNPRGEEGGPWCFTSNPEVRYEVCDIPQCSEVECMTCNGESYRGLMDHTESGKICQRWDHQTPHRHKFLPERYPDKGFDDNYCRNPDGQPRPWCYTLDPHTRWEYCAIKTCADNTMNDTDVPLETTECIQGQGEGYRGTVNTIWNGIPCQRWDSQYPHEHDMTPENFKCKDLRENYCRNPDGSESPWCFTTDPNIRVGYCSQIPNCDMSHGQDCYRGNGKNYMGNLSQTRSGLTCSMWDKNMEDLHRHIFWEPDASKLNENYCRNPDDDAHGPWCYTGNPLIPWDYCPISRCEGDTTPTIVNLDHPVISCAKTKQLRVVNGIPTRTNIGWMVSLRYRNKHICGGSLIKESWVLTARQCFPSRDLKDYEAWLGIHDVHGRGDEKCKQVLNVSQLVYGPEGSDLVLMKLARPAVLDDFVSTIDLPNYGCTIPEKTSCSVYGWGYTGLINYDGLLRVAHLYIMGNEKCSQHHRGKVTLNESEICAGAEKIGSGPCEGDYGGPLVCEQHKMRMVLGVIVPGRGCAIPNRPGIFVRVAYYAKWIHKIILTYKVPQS
readout.label: pEC50
Answers are plain numbers, as −log10 of the molar value.

# annotated cases, reported pEC50 shown
{"columns": ["binder", "pEC50"],
 "data": [
  ["HC 8/SLC 2 (antibody) chain 1: GQGTLVTVSSASTKGPSVQPVLHQPPAMSSALGTTIRLTCTLRNDHDIGVYSVYWYQQRPGHPPRFLLRYFSQSDKSQGPQVPPRFSGSKDVARNRGYLSISELQPEDEAMYYCAMGARSRCWPRGFQSKHNSVTHVFGSGTQLTVLSQPKATPSVTLFPPSSEELQANKATLVCLMNDFYPGILTVTWKADGTPITQGVEMTTPSKQSNNKYAASSYLSLTPEQWRSRRSYSCQVMHEGSTVEKTVAPAECS chain 2: MSWAPVLLMLFVYCTGCGPQPVLHQPPAMSSALGTTIRLTCTLRNDHDIGVYSVYWYQQRPGHPPRFLLRYFSQSDKSQGPQVPPRFSGSKDVARNRGYLSISVTHVFGSGTQLTVLSQQVQLVQ", 10.23],
  ["HC 4/SLC 7 (antibody) chain 1: GQGTLVTVSSASTKQPVLHQPPAMSSALGTTIRLTCTLRNDHDIGVYSVYWYQQRPGHPPRFLLRYFSQSDKSQGPQVPPRFSGSKDVARNRGYLSISELQPEDEAMYYCAMGARSRCWPRGFQSKHNSVTHVFGSGTQLTVLSQPKATPSVTLFPPSSEELQANKATLVCLMNDFYPGILTVTWKADGTPITQGVEMTTPSKQSNNKYAASSYLSLTPEQWRSRRSYSCQVMHEGSTVEKTVAPAECS chain 2: MSWAPVLLMLFVYCTGCGPQPVLHQPPAMSSALGTTIRLTCTLRNDHDIGVYSVYWYQQRPGHPPRFLLRYFSQSDKSQGPQVPPRFSGSKDVARNRGYLSISVTHVFGSGTQLTVLSQPKATPQVQLVQ", 10.23],
  ["HC 8/SLC 4 (antibody) chain 1: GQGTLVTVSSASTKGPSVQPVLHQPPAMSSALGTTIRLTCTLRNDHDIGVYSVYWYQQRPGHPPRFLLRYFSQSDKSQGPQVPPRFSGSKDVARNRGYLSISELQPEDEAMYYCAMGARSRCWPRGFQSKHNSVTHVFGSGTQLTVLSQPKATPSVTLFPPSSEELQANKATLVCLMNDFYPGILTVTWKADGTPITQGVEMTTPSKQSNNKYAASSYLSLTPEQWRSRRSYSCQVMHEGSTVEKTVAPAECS chain 2: MSWAPVLLMLFVYCTGCGPQPVLHQPPAMSSALGTTIRLTCTLRNDHDIGVYSVYWYQQRPGHPPRFLLRYFSQSDKSQGPQVPPRFSGSKDVARNRGYLSISVTHVFGSGTQLTVLSQPKQVQLVQ", 10.15]
]}

Inquiry: Which measured pEC50 value corresponds to HC 9/SLC 2 (antibody) chain 1: GQGTLVTVSSASTKGPSVFQPVLHQPPAMSSALGTTIRLTCTLRNDHDIGVYSVYWYQQRPGHPPRFLLRYFSQSDKSQGPQVPPRFSGSKDVARNRGYLSISELQPEDEAMYYCAMGARSRCWPRGFQSKHNSVTHVFGSGTQLTVLSQPKATPSVTLFPPSSEELQANKATLVCLMNDFYPGILTVTWKADGTPITQGVEMTTPSKQSNNKYAASSYLSLTPEQWRSRRSYSCQVMHEGSTVEKTVAPAECS chain 2: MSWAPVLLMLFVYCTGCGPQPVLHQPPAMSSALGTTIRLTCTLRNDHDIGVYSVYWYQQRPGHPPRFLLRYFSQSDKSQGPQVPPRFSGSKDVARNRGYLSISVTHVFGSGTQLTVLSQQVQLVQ ?
Reply text: 10.21
